- system.name: Mdm4:p53 (Homo sapiens)
- Sequence (O15151 whole entry): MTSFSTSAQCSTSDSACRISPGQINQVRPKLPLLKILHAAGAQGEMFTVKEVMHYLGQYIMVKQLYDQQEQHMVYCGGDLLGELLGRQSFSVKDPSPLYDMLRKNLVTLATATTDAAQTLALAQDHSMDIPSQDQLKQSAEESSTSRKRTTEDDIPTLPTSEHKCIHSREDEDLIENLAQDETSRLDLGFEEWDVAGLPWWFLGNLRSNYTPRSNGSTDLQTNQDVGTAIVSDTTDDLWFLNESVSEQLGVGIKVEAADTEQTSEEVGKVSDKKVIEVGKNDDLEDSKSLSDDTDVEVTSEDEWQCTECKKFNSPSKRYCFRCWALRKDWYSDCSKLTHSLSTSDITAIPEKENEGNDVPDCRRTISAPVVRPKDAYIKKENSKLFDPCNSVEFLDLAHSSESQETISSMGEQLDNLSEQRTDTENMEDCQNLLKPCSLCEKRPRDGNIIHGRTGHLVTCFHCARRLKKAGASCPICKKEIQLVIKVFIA
- experiment.summary: NanoBIT Mdm4:p53 PPI assay (transiently transfected CHO-K1 cells)
- Assay type: cell-based
- applied.conditions: NanoBIT Mdm4:p53 (IC50, µM), small molecules; 1 hour treatment; 10% (v/v) FCS

- molecule.smiles: "CC(C)(C)C[C@@H]1N[C@@H](C(=O)N[C@H]2CC[C@H](O)CC2)[C@H](c2cccc(Cl)c2F)[C@]12C(=O)Nc1cc(Cl)ccc12"
  system.name: "Mdm4:p53 (Homo sapiens)"
  IC50 / µM: 10.2
